Test system: EKVX NSCLC
test-details: NCI tumour cell line growth inhibition, 48 h
Consider the following compounds and their measured TGI readings.

O=C([CH-]C(=O)c1ccccc1)c1ccccc1.[CH-]1CCCCC1.[CH-]1CCCCC1.[CH-]1CCCCC1.[Sn+4]	32.6 µM

Dear colleague, I am looking for the recorded TGI of the following compound: Cc1n[nH]c(=O)n1/N=C\c1ccccc1 > 100 µM

Item CC(=O)[O-].Cn1ccnc1CNCc1nccn1C.[Cu+2].[O-][Cl+3]([O-])([O-])[O-] has what recorded TGI? > 100 µM

Name the reported TGI value associated with the compound Nc1ccc(C(=O)N/C(=C\c2cccc([N+](=O)[O-])c2)c2nc3[nH]c(=S)[nH]c(=O)c3[nH]2)cc1 > 100 µM

TGI for COC(=O)C1=C(O)[C@H](C(=O)OC)C2(O)C(C(=O)OC)[C@H](c3ccc(OC(=O)C(C)c4ccc(CC(C)C)cc4)cc3)C[C@@H]1[C@@H]2C(=O)OC (some centres not stated) ? 6.7 µM

Requested read-out: TGI. Entry: NC1=NS(=O)(=O)Nc2nc(-c3ccccc3)[nH]c21 > 100 µM

Dear colleague, I am looking for the recorded TGI of the following compound: Cc1oc2c(c1C)S(=O)(=O)C(C#N)=C(N(C)C)N2 > 100 µM

Which TGI value belongs to CN(CCNC(=O)c1cn(C)c2c1ccc1cc(Cl)c(Cl)cc12)CCNC(=O)c1cn(C)c2c1ccc1cc(Cl)c(Cl)cc12 ? 10.9 µM
